Molecular target: SHP-2 enzyme (Homo sapiens)
Construct: Homogeneous Full Length SHP-2 Assay Kit (BPS Bioscience #79330)
Test: Phosphatase activity assay (Homogeneous Full Length SHP-2 Assay Kit, DiFMUP substrate)
Conditions: full length SHP-2 activated with 0.5 μM SHP-2 activating Peptide; 1 hour co-incubation; DiFMUP 50 μM, 30 min
Protocol: IC50 values were assayed using Homogeneous Full Length SHP-2 Assay Kit (BPS Bioscience #79330), which uses 6,8-difluoro-4-methylumbelliferone phosphate (DiFMUP) as the reaction substrate. […] After 30 min of incubation, the fluorescence intensity of the reaction system (excitation wavelength: 350 nm, emission wavelength: 460 nm) was measured by Tecan Infinite M1000.
Recorded Metric: IC50 (nM)

Below are worked cases with known answers.
Compound	Tested System	Recorded Metric	Unit Label	Assay Value
Nc1ccc2c(c1)CCN2C(=O)c1ncc(N2CCC3(CC2)Cc2ccccc2C3N)nc1N (centres unmarked)	SHP-2 enzyme (Homo sapiens)	IC50	nM	4
Nc1nc2c(s1)CN(C(=O)c1ncc(N3CCC4(CC3)Cc3cc(F)ccc3C4N)nc1N)CC2(F)F (centres unmarked) [Compound 129]	SHP-2 enzyme (Homo sapiens)	IC50	nM	5

P: Nc1ccc2c(n1)CCN2C(=O)c1ncc(N2CCC3(CC2)Cc2ccc(F)cc2C3N)nc1N (centres unmarked)
Q: Nc1ccc2c(n1)CCN2C(=O)c1nc(C2CC2)c(N2CCC3(CC2)Cc2ccccc2C3N)nc1N (centres unmarked)
R: Nc1nc(N2CCC3(CC2)Cc2ccc(F)cc2C3N)cnc1C(=O)N1CCc2ncccc21 (centres unmarked)
Rank order required: IC50, descending. # output: labels, in the requested order
Q, R, P
(Q: 15 nM, R: 5 nM, P: 3 nM)
